test_target: T1, human MCH-1R (human, UniProt Q99705 1-353)
T1 construct: also called MCH-R1
T1 sequence (Q99705 whole entry, form in doubt): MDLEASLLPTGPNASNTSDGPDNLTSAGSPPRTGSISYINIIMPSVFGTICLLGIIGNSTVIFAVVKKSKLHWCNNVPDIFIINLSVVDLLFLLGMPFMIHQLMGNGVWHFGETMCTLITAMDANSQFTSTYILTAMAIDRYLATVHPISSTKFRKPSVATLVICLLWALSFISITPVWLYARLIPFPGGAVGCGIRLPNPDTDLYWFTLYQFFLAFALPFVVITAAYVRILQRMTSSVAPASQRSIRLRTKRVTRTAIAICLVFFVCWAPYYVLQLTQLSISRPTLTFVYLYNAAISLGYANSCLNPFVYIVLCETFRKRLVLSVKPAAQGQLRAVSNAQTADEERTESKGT
experiment_summary: SPA competition with [125I]-human MCH (Phe13, Tyr19) on receptor membranes
Bridges are numbered along the chain shown (N, C = ends).
Attribute: IC50
Please respond with the number in nM and leave the unit unwritten.

- binder: "Ac-RCMLGRVFRPC-NH2 (disulfide 2-11; SMILES CSCC[C@@H]1NC(=O)[C@@H](NC(=O)[C@H](CCCNC(=N)N)NC(C)=O)CSSC[C@@H](C(N)=O)NC(=O)[C@@H]2CCCN2C(=O)[C@H](CCCNC(=N)N)NC(=O)[C@H](Cc2ccccc2)NC(=O)[C@H](C(C)C)NC(=O)[C@H](CCCNC(=N)N)NC(=O)CNC(=O)[C@H](CC(C)C)NC1=O, also called Phe^13) [SEQ. ID. NO. 27]"
  observed_value: 1

Next binder, IC50 to be filled in.
stdin: Look up IC50: RCMLGRVXRPC (Phe(pF)^13, also called Phe(pF)^13) [SEQ. ID. NO. 29]
stdout: 0.6
